Recorded measurements of interaction score, one per entry
Biological target: T1, 4H2585-bN
T1 chain: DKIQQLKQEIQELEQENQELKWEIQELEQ
Test: two-hybrid library CCNG1;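 also: natural log of median RNA to DNA barcode read ratio; higher means stronger binding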
Reply with the value as a number alone.

Reference set, count: 3
binder="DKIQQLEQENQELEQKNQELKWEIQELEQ [4H2233-bN]" measured=-2.3
binder="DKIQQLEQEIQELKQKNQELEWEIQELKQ [4H2162-bN]" measured=0.615
binder="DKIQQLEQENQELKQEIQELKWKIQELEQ [4H2253-bN]" measured=-1.66

interaction score lookup needed for DKIQQLKQEIQELEQENQELKWEIQELEQ [4H2585-bN] , thanks.
-0.804
